Molecular target: MBP-FoxP1dN (Mus musculus, UniProt P58462 326-579)
Sequence: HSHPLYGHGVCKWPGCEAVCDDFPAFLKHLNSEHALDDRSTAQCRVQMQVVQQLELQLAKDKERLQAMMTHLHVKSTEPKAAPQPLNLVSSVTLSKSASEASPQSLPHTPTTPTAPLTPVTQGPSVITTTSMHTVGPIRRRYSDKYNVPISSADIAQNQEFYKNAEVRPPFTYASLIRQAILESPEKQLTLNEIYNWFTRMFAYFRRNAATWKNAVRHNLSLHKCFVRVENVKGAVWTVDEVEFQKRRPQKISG
Assay: PD-seq (MBP pull-down with sequencing); 20 mM Tris-HCl pH 7.5, 100 mM NaCl, 1.5 mM MgCl2, 0.4 uM protein, 0.1 uM dsDNA library, 30 min, room temperature, amylose pull-down; high values mean tight binding
Details: protein: recombinant; tags: His6-MBP; chain copies: 2; dsDNA, one strand shown
The full ranking holds about 16,000 sequences; the median of “rpm ratio (pull-down/input)” is about 0.94, and the highest 2% start at about 1.7. The sample as a whole holds a higher share of the highest values than the screen did.
endpoint.label: binding signal

# input What value of binding signal has been reported for the following sequence? "GATGATTGTTCTCCCAGCTGATGAATTACAGTTGTCGAGTAAACAAATTTTCCTAATCTTTCTGTTCAAGCGCCATCTAC"
# output 1.46 RPM ratio (pull-down/input)

# input What value of binding signal has been reported for the following sequence? "GATGATTGTTCTCCCAGCTGATGAATTGTTTGCTTCGAGTAAACAAATTTTCCTAATCTTTCTGTTCAAGCGCCATCTAC"
# output 2.2 RPM ratio (pull-down/input)

# input What value of binding signal has been reported for the following sequence? "GATGATTGTTCTCCCAGCTGATGAATTTGCTTCTTCGAGTAAACAAATTTTCCTAATCTTTCTGTTCAAGCGCCATCTAC"
# output 1.02 RPM ratio (pull-down/input)

# input What value of binding signal has been reported for the following sequence? "GATGATTGTTCTCCCAGCTGATGAATTTTTGCTTTCGAGTAAACAAATTTTCCTAATCTTTCTGTTCAAGCGCCATCTAC"
# output 1.83 RPM ratio (pull-down/input)

# input What value of binding signal has been reported for the following sequence? "GATGATTGTTCTCCCAGCTGATGAATTGCTTTTTTCGAGTAAACAAATTTTCCTAATCTTTCTGTTCAAGCGCCATCTAC"
# output 1.45 RPM ratio (pull-down/input)

# input What value of binding signal has been reported for the following sequence? "GATGATTGTTCTCCCAGCTGATGAATTGTTGCTTTCGAGTAAACAAATTTTCCTAATCTTTCTGTTCAAGCGCCATCTAC"
# output 2.12 RPM ratio (pull-down/input)

# input What value of binding signal has been reported for the following sequence? "GATGATTGTTCTCCCAGCTGATGAATTTCGCAAGTCGAGTAAACAAATTTTCCTAATCTTTCTGTTCAAGCGCCATCTAC"
# output 0.831 RPM ratio (pull-down/input)

# input What value of binding signal has been reported for the following sequence? "GATGATTGTTCTCCCAGCTGATGAATTGGCTTTCTCGAGTAAACAAATTTTCCTAATCTTTCTGTTCAAGCGCCATCTAC"
# output 0.862 RPM ratio (pull-down/input)

# input What value of binding signal has been reported for the following sequence? "GATGATTGTTCTCCCAGCTGATGAATTGCTTTGTTCGAGTAAACAAATTTTCCTAATCTTTCTGTTCAAGCGCCATCTAC"
# output 1.11 RPM ratio (pull-down/input)

# input What value of binding signal has been reported for the following sequence? "GATGATTGTTCTCCCAGCTGATGAATTTATCGCTTCGAGTAAACAAATTTTCCTAATCTTTCTGTTCAAGCGCCATCTAC"
# output 1.1 RPM ratio (pull-down/input)

# input What value of binding signal has been reported for the following sequence? "GATGATTGTTCTCCCAGCTGATGAATTGGAAGCGTCGAGTAAACAAATTTTCCTAATCTTTCTGTTCAAGCGCCATCTAC"
# output 0.893 RPM ratio (pull-down/input)

# input What value of binding signal has been reported for the following sequence? "GATGATTGTTCTCCCAGCTGATGAATTGCCTAGTTCGAGTAAACAAATTTTCCTAATCTTTCTGTTCAAGCGCCATCTAC"
# output 0.959 RPM ratio (pull-down/input)

# input What value of binding signal has been reported for the following sequence? "GATGATTGTTCTCCCAGCTGATGAATTCATCGTCTCGAGTAAACAAATTTTCCTAATCTTTCTGTTCAAGCGCCATCTAC"
# output 0.784 RPM ratio (pull-down/input)

# input What value of binding signal has been reported for the following sequence? "GATGATTGTTCTCCCAGCTGATGAATTGCGCCATTCGAGTAAACAAATTTTCCTAATCTTTCTGTTCAAGCGCCATCTAC"
# output 1.14 RPM ratio (pull-down/input)

# input What value of binding signal has been reported for the following sequence? "GATGATTGTTCTCCCAGCTGATGAATTTGCTTTTTCGAGTAAACAAATTTTCCTAATCTTTCTGTTCAAGCGCCATCTAC"
# output 1.21 RPM ratio (pull-down/input)

# credit: paper PMC12820563
